From: PubChem BioAssay (NCI)

System: HS 578T breast
Procedure details: NCI tumour cell line growth inhibition, 48 h; in the data active means GI50 below about 0.43 µM; inactive means the rest
Pick one: t = active, f = inactive

Could you check what this test reported for CCC1CCc2nc3sc(C(=O)Nc4ccccc4F)c(N)c3cc2C1 (stereo not given) ?
f

Could you check what this test reported for COc1ccc(C(=S)c2cc(OC)c(OC)c(OC)c2)cc1OC(=O)CCl ?
t

Could you check what this test reported for C#C[C@@]1(O)[C@@H](CO)O[C@@H](n2cc(Cl)c3c(N)ncnc32)[C@@H]1O ?
f

Could you check what this test reported for COc1ccc(-c2coc3ncnc(N)c23)cc1 ?
f

Could you check what this test reported for C[C@H](c1ccc(Cl)cc1N)N1C(=O)c2cc(I)ccc2N(CCCN2CCN(C)CC2)C(=O)[C@@H]1c1ccc(Cl)cc1 ?
f

----------
Test system: NCI-H460 lung
Procedure details: NCI tumour cell line growth inhibition, 48 h
Can you tell me TGI for the items I'm about to list?

Sample records with TGI:
Report TGI from NCI-H460 lung testing of Cc1[nH]c2c(C)ccc(C)c2c1CC(=O)O
> 100 µM

Report TGI from NCI-H460 lung testing of Cc1ccc2c(c1)C(=O)/C(=C1/CCc3ccc(C)cc31)C2
> 100 µM

Report TGI from NCI-H460 lung testing of COc1ccc2cc(C(=O)c3ccccc3C(=O)O)ccc2c1
> 100 µM

Report TGI from NCI-H460 lung testing of CSc1ccc(-c2cn3ccsc3n2)c(O)c1
> 87.4 µM

Report TGI from NCI-H460 lung testing of O=C(O)c1ccc(Nc2ccnc3cc(Cl)ccc23)cc1O
> 100 µM

Report TGI from NCI-H460 lung testing of O=C(O)C(=O)Cc1ccc2c(c1)OCO2
> 100 µM

Report TGI from NCI-H460 lung testing of COc1cccc(/C=C(/C(=O)O)c2cc(OC)c(OC)c(OC)c2)c1
> 100 µM

Report TGI from NCI-H460 lung testing of CS(=O)(=O)c1nc(N)nc2nc[nH]c12
> 100 µM

For each listed entry, give its TGI.
1. Cc1c(O)c(OC2OC(CO)C(O)C(O)C2O)cc2c1CC[C@@H]1C2(C)C(=O)C[C@]2(C)[C@@H]([C@@](C)(O)C(O)/C=C/C(C)(C)O)[C@H](O)C[C@@]12C (some centres undefined)
2. Cc1cc(NC(=O)c2ccc(NS(=O)(=O)CCO)cc2N2CCC3(CC2)CC3)nc(N2CCC(F)(F)CC2)n1

["> 100 µM", "26.8 µM"]

----------
Can you tell me TGI for the items I'm about to list?
Test system: EKVX NSCLC
Procedure details: NCI tumour cell line growth inhibition, 48 h

Respond only with TGI recorded for CC1(C)CCC(=O)c2c(O)ccc(O)c21
> 100 µM

For each listed entry, give its TGI.
1. CCOC(=O)CSc1nc2ccccc2c(=O)n1N
2. C1COC2SC3=C(SC(=C4SC5=C(SCCS5)S4)S3)SC2O1 (stereo not given)
3. CCC[CH2][Sn]1([CH2]CCC)[O]C(c2ccccn2)S(=O)(=O)[O]1 (stereo not given)
4. CCc1ccc(C2=C/C(=C/c3ccc(Cl)cc3)C(=O)N2CCc2ccc(S(N)(=O)=O)cc2)cc1

> 100 µM
> 100 µM
5.61 µM
10 µM

For each listed entry, give its TGI.
1. Cn1c(=O)n(-c2c3ccccc3c(Cl)c3ccccc23)n(C(C)(C)C)c1=O
2. OCCN1CCN(CCO)Cc2ccccc2OCCOc2ccccc2C1
3. COc1ccc(-c2cc(-c3ccc(Nc4nc(Nc5ccc(Cl)cc5)nc(Nc5ccc(Cl)cc5)n4)cc3)no2)cc1
4. COc1cccc(/C=C(/C(=O)O)c2cc(OC)c(OC)c(OC)c2)c1
5. COC(C)(C)C(O)C(O)C[C@H](C)C1CC=C2C1(C)CCC1[C@@]3(C)CCC(OC(C)=O)C(C)(C)C3CC(OC3OC(COC(C)=O)C(O)C(O)C3O)[C@@]21C (stereo not given in full)
6. Cc1nc(Nc2nnc(-c3cc([N+](=O)[O-])cc([N+](=O)[O-])c3C)o2)sc1C(=O)CC(=O)Cc1nc2ccc(Cl)cc2[nH]c1=O

> 100 µM
> 100 µM
85.6 µM
> 100 µM
> 10 µM
> 100 µM

For each listed entry, give its TGI.
1. COc1cc2c(c(OC)c1OC)-c1ccc([O-])c(=O)cc1[C@@H](NC(C)=O)CC2.COc1cc2c(c(OC)c1OC)-c1ccc([O-])c(=O)cc1[C@@H](NC(C)=O)CC2.[Cu+2]
2. COc1cc(CC2CCc3nc(N)nc(N)c3C2)cc(OC)c1OC (stereo not given)
3. CC[C@H](C)c1occ2c(O)c(C(=O)O)c(=O)cc-2c1C
4. CCCCCCCCN(CCCCCCCC)C(=N)c1ccnc2ccccc12
5. O=c1[nH]cnc2c(C3OC(CO)C(O)C3O)[nH]nc12 (stereo not given)
6. COc1cc(N2CCC(N3CCN(C)CC3)CC2)ccc1Nc1ncc(Cl)c(Nc2ccccc2P(C)(C)=O)n1

1: > 100 µM; 2: > 100 µM; 3: > 100 µM; 4: 2.68 µM; 5: > 100 µM; 6: > 100 µM

For each listed entry, give its TGI.
1. C=C(C)C1CC=C(C(=O)O)CC1 (stereo not given)
2. CCCCCCCC/C=C\CCCCCCCCNc1ccn(C2OC(COP(=O)(O)OC3CC(n4cc(F)c(=O)[nH]c4=O)OC3CO)C(O)C2O)c(=O)n1 (stereo not given)
3. COC(=O)c1ccccc1C1CN=NC12Cc1c(C)cc(C)cc1C2=O (stereo not given)

1. > 5000 µM
2. > 100 µM
3. > 100 µM

----------
Can you tell me TGI for the items I'm about to list?
System: MALME-3M melanoma
Procedure details: NCI tumour cell line growth inhibition, 48 h
Numbers only, in µM.

Respond only with TGI recorded for CCCCCCN(CCCCCC)C(=N)c1ccnc2ccccc12
5.64

Respond only with TGI recorded for N=c1nc(N)c2cc3c(N)nc(=N)c3cc12
18

Respond only with TGI recorded for CC1CC(N)=Nc2ccccc2N1Cc1ccccc1 (stereo not given)
15.4

Respond only with TGI recorded for Cc1cc(NC(=O)c2ccc(NS(=O)(=O)CCO)cc2N2CCC3(CC2)CC3)nc(N2CCC(F)(F)CC2)n1
27.8

***
Respond only with TGI recorded for COc1cc2c(c(OC)c1OC)-c1ccc(OC)c(=O)cc1[C@@H](NC(=O)CCl)CC2
26.5

----------
System: MCF7 breast
Procedure details: NCI tumour cell line growth inhibition, 48 h
Quantity: TGI

Sample records with TGI:
Respond only with TGI recorded for Cc1cc(C)c2c(=O)cc(-c3ccc(Cl)cc3)[nH]c2n1
> 100 µM

Respond only with TGI recorded for CCOC(=O)Cn1c(=O)c2nc(SC)sc2n(-c2ccc(C)cc2)c1=S
> 100 µM

Respond only with TGI recorded for Cc1[nH]c2c(C)ccc(C)c2c1CC(=O)O
> 100 µM

Respond only with TGI recorded for CCN1C(=O)N(CC)C2C1NN=c1s/c(=C3\C(=O)N(CCC(C)C)c4ccccc43)c(=O)n12 (stereo not drawn)
41.9 µM

For each listed entry, give its TGI.
1. CCC1(O)CC(OC2CC(N(C)C)C(OC3CC(O)C(OC4OC(C)C(=O)C=C4N)C(C)O3)C(C)O2)c2c(O)c3c(c(O)c2C1C(=O)OC)C(=O)c1cccc(O)c1C3=O (stereo not drawn)
2. CCOC(=O)[C@H](CSSc1ncnc2cc[nH]c12)NC(=O)[C@@H](C)c1ccc2cc(OC)ccc2c1
3. CC(=O)O[C@H](C[C@H](C(C)C)N(C)C(=O)[C@@H](NC(=O)[C@H]1CCCCN1C)C(C)C)c1nc(C(=O)N[C@@H](Cc2ccccc2)C[C@H](C)C(=O)O)c(C)s1
4. O=C(NO)c1cccc(OCc2ccc(Br)cc2)c1

1. 1.4 µM
2. > 100 µM
3. > 25 µM
4. > 65 µM

----------
System: OVCAR-4 ovarian
Procedure details: NCI tumour cell line growth inhibition, 48 h; in the data active means GI50 below about 0.43 µM; inactive means the rest
Pick one: active, inactive

Could you check what this test reported for COc1ccc(OC)c(/C=C/c2nnc(Nc3ccc(Cl)cc3)o2)c1 ?
inactive

Could you check what this test reported for CS(=O)(=O)c1ccc(N/N=C/c2c(-c3ccc(S(C)(=O)=O)cc3)[nH]c3ccc(F)cc23)cc1 ?
inactive

Could you check what this test reported for CC[O-].CC[O-].[O-]c1ccccc1C=Nc1ccccc1.[O-]c1ccccc1C=Nc1ccccc1.[Ti+4] ?
inactive

Could you check what this test reported for COc1ccc(-c2coc3ncnc(N)c23)cc1 ?
inactive

Could you check what this test reported for Cc1cc(NC(=O)c2ccc(NS(=O)(=O)CCO)cc2N2CCC3(CC2)CC3)nc(N2CCC(F)(F)CC2)n1 ?
inactive

Could you check what this test reported for CC(C)(Cl)CCC1=C(Cl)C(=O)c2ccccc2C1=O ?
inactive

Could you check what this test reported for O=c1oc2ccc(Cl)cc2c(=O)n1-c1ccc(Cl)cc1F ?
active

Could you check what this test reported for C/C(=C\c1ccn(-c2ccc(N)c(C(F)(F)F)c2)n1)[C@@H]1C[C@@H]2O[C@]2(C)CCC[C@H](C)[C@H](O)[C@@H](C)C(=O)C(C)(C)[C@@H](O)CC(=O)O1 ?
active

***
Could you check what this test reported for COc1ccc(-c2cc(-c3ccc(Nc4nc(Nc5ccc(Cl)cc5)nc(Nc5ccc(Cl)cc5)n4)cc3)no2)cc1 ?
inactive

Could you check what this test reported for COc1cc(N2CCC(N3CCN(C)CC3)CC2)ccc1Nc1ncc(Cl)c(Nc2ccccc2P(C)(C)=O)n1 ?
inactive

Could you check what this test reported for O=C1C2CC3C(CC2C(=O)[N]1[Sn]([c]1ccccc1)([c]1ccccc1)[c]1ccccc1)C1(Cl)C(Cl)=C(Cl)C3(Cl)C1(Cl)Cl (stereo unspecified) ?
active

Could you check what this test reported for COc1cc2[nH]c(C(=O)c3cc(OC)c(OC)c(OC)c3)c(N)c2cc1C#CCO ?
inactive

Could you check what this test reported for CCOC(=O)[C@H](CSSc1ncnc2cc[nH]c12)NC(=O)[C@@H](C)c1ccc2cc(OC)ccc2c1 ?
inactive

Could you check what this test reported for C[C@H]1CCC/C=C/[C@@H]2C[C@H](O)C[C@H]2[C@H](O)[C@H](S(=O)c2ccc(O)cc2)CC(=O)O1 (stereo partly specified) ?
active

Could you check what this test reported for COc1ccc(C(=O)/C=C/c2cc3ccccc3[nH]c2=O)cc1 ?
inactive

Could you check what this test reported for Nc1ncc(-c2cnn(C3CCNCC3)c2)cc1-c1nc2ccccc2o1 ?
inactive
